# TARGET OF ASSAY: T1, mouse folate receptor alpha (mFRα), recombinant protein (mouse, UniProt P35846 25-232)
# T1 construct: Bought recombinant proteins (e.g. biotinylated, Acro Biosystems FO1-M82E9); also called mFOLR1; Ms FOLR1
# T1 sequence (P35846 25-232 limits assumed): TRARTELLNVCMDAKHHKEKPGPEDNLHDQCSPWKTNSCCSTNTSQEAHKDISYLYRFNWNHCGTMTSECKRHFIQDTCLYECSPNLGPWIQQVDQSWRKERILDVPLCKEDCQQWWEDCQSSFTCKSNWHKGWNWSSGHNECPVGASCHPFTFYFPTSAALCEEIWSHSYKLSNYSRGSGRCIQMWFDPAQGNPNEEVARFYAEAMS
# PROCEDURE SUMMARY: ELISA on recombinant mouse FOLR1, cMyc tag detection, normalised binding, non-linear fit
EXPERIMENTAL ENDPOINT: EC50 (nM)

BINDER	EXPERIMENTAL ENDPOINT	ASSAY VALUE
VHH 3HFO26 (family 1) (VHH) VHH: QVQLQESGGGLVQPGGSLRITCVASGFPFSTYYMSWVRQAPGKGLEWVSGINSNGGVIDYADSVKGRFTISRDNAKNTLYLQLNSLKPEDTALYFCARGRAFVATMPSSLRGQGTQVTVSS	EC50	0.3

[a] VHH 3HFO28 (family 7) (VHH) VHH: QVQLQESGGGLVQPGGSLRLSCAASGSTLDRYEIGWFRQAPGKGRERVSCISTTSSTYEDSVKGRFTISRDNAKNTVYLQMNSLKPEDTAVYYCATVRVAWSTCFPTGDSWGKGTQVTVSS
[b] VHH 2MFR7 (family 1) (VHH, also called 2MFRO7) VHH: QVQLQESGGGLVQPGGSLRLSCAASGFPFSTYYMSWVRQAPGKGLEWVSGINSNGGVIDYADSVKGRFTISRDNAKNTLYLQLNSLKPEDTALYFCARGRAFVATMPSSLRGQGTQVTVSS
Problem: Among a and b , which shows a numerically higher EC50 result? Give the label under which the chosen entry appears.
Result: a
(a: 84.3 nM, b: 0.6 nM)
